# Tested on: A/Brisbane/10/2007 (H3N2)
# Assay Notes: microbe, parasite or virus in culture
# Measurement Context: Influenza A virus, H3N2, MDCK, read-out: IC50, Visual Assay
Measured IC50 by item
// note: answer is a bare numeric in nM

[[record]]
molecule = "Nc1ccn([C@@H]2O[C@H](CO)[C@@H](O)C2(F)F)c(=O)n1 [2’-deoxy-2’, 2’-difluorocytidine, reference compound]"
experimental_target = "A/Brisbane/10/2007 (H3N2)"
numeric_result = 130


stdin: Need IC50, item Nc1ccn([C@@H]2O[C@H](CO)[C@@H](O)[C@H]2F)c(=O)n1
stdout: 1000

* * *

# System: influenza A/CA/07/2009 (H1N1)
# Assay Notes: microbe, parasite or virus in culture
# Measurement Context: H1N1, MDCK, read-out: IC50, Visual Assay
Measured Property: IC50 (nM)
// note: answer is a bare numeric in nM

[[record]]
compound = "Nc1ccn([C@@H]2O[C@H](CO)[C@@H](O)C2(F)F)c(=O)n1 [2’-deoxy-2’, 2’-difluorocytidine, reference compound]"
numeric_result = 180


// below: IC50 requested for another compound
stdin: Need IC50, item Nc1ccn([C@@H]2O[C@H](CO)[C@@H](O)[C@H]2F)c(=O)n1
stdout: 3200

* * *

SI (CC50/IC50), Visual Assay values recorded for A/Hong Kong/213/2003 (H5N1)
Number, no unit, nothing else.

[[record]]
compound = "[N-]=[N+]=N[C@@H]1[C@H](O)[C@@H](COP(=O)(O)OP(=O)(O)OP(=O)(O)O)O[C@H]1n1ccc(N)nc1=O [2’-azido-2’-deoxycytidine, 2'-azido-2'-deoxyctidine-5'-triphosphate]"
experimental_target = "A/Hong Kong/213/2003 (H5N1)"
numeric_result = 0


stdin: Need SI (CC50/IC50), Visual Assay, item Nc1nc(=O)n([C@H]2C[C@H](O)[C@@H](CO)O2)cc1F
stdout: 0

stdin: Check Nc1ncnc2c1ncn2[C@@H]1O[C@H](CO)[C@@H](O)[C@H]1F too.
stdout: 0

stdin: Check Nc1ccn([C@@H]2O[C@H](CO)[C@@H](O)[C@H]2I)c(=O)n1 too.
stdout: 0

* * *

Measured pIC50 by item
# Test system: A/Thailand/2(Kan-1)/16/2004 (H5N1)
# Assay Notes: microbe, parasite or virus in culture
# Measurement Context: Influenza A virus, H5N1, MDCK, read-out: IC50, Neutral Red Uptake Assay
pIC50: −log10 of the molar value.

[[record]]
compound = "Nc1ccn([C@@H]2O[C@H](CO)[C@@H](O)[C@H]2I)c(=O)n1 [2’-iodo-2’-deoxycytidine]"
measured_property = "pIC50"
result = "< 4.00"

[[record]]
compound = "Nc1ccn([C@@H]2O[C@H](CO)[C@@H](O)[C@H]2F)c(=O)n1 [2’-deoxy-2’-fluorocytidine, 2'-deoxy-2'-fluorocytidine]"
measured_property = "pIC50"
result = 6.14

[[record]]
compound = "Nc1nc(=O)n([C@H]2C[C@H](O)[C@@H](CO)O2)cc1F [2'-deoxy-5-fluorocytidine]"
measured_property = "pIC50"
result = "< 4.00"


stdin: Need pIC50, item Nc1ncnc2c1ncn2[C@@H]1O[C@H](CO)[C@@H](O)[C@H]1F [2’-deoxy-2’-fluoroadenosine]
stdout: < 4.00

* * *

Measured IC50 by item
# System: A/Hong Kong/213/2003H (A/Hong Kong/213/2003 × Ann Arbor/6/60 hybrid)
# Assay Notes: microbe, parasite or virus in culture
# Measurement Context: Influenza A virus, H1N1|H5N1, MDCK, read-out: IC50, Neutral Red Uptake Assay
// note: answer is a bare numeric in µM

[[record]]
compound = "Nc1ccn([C@@H]2O[C@H](CO)[C@@H](O)[C@H]2F)c(=O)n1"
measured_property = "IC50"
numeric_result = 7.2


// below: IC50 requested for another compound
stdin: Need IC50, item Nc1ccn([C@@H]2O[C@H](CO)[C@@H](O)C2(F)F)c(=O)n1 [2’-deoxy-2’, 2’-difluorocytidine, reference compound]
stdout: 0.065

* * *

# Test system: Influenza A/Vietnam/1203/2004 (H5N1)
Measured SI (CC50/IC50), Neutral Red Uptake Assay by item

Before answering, review these 2 worked examples.
[[record]]
compound = "O=c1ccn([C@@H]2O[C@H](CO)[C@@H](O)[C@H]2F)c(=O)[nH]1 [2’-deoxy-2’-fluorouridine]"
experimental_target = "Influenza A/Vietnam/1203/2004 (H5N1)"
result = 0

[[record]]
compound = "Nc1nc2c(ncn2[C@@H]2O[C@H](CO)[C@@H](O)[C@H]2F)c(=O)[nH]1 [2’-deoxy-2’-fluoroguanosine]"
experimental_target = "Influenza A/Vietnam/1203/2004 (H5N1)"
result = ">12"


stdin: Need SI (CC50/IC50), Neutral Red Uptake Assay, item Nc1ccn([C@@H]2O[C@H](CO)[C@@H](O)C2(F)F)c(=O)n1 [2’-deoxy-2’, 2’-difluorocytidine, reference compound]
stdout: >3100

stdin: Check [N-]=[N+]=N[C@@H]1[C@H](O)[C@@H](COP(=O)(O)OP(=O)(O)OP(=O)(O)O)O[C@H]1n1ccc(N)nc1=O [2’-azido-2’-deoxycytidine, 2'-azido-2'-deoxyctidine-5'-triphosphate] too.
stdout: > 2030

stdin: Check Nc1ncnc2c1ncn2[C@@H]1O[C@H](CO)[C@@H](O)[C@H]1F [2’-deoxy-2’-fluoroadenosine] too.
stdout: 0

stdin: Check Nc1ccn([C@@H]2O[C@H](CO)[C@@H](O)[C@H]2I)c(=O)n1 [2’-iodo-2’-deoxycytidine] too.
stdout: 0

* * *

# Assay Notes: in vitro
# Measurement Context: dog, CC50 values, range, neutral red uptake assay
Measured Property: CC50

stdin: Need CC50, item Nc1ccn([C@@H]2O[C@H](CO)[C@@H](O)C2(F)F)c(=O)n1 [2’-deoxy-2’, 2’-difluorocytidine, reference compound]
stdout: 1.1 to 280 µM

* * *

# Tested on: influenza viruses
# Assay Notes: microbe, parasite or virus in culture
# Type: cell-based, influenza A and B viruses
# Measurement Context: Influenza A virus, MDCK, read-out: IC50, all viruses tested
pIC50: −log10 of the molar value.
Measured Property: pIC50

stdin: Need pIC50, item Nc1ccn([C@@H]2O[C@H](CO)[C@@H](O)[C@H]2F)c(=O)n1 [2’-deoxy-2’-fluorocytidine, 2'-deoxy-2'-fluorocytidine]
stdout: > 4.82

* * *

# System: A/Duck/MN/1525/81 (H5N1)
# Assay Notes: microbe, parasite or virus in culture
# Measurement Context: Influenza A virus, H5N1, MDCK, read-out: IC50, Visual Assay
Measured Property: IC50 (nM)
// note: answer is a bare numeric in nM

stdin: Need IC50, item Nc1ccn([C@@H]2O[C@H](CO)[C@@H](O)[C@H]2F)c(=O)n1 [2’-deoxy-2’-fluorocytidine, 2'-deoxy-2'-fluorocytidine]
stdout: 250

* * *

# System: Influenza A/Vietnam/1203/2004 (H5N1)
Measured SI (CC50/IC50), Visual Assay by item

Before answering, review these 4 worked examples.
[[record]]
compound = "Nc1ccn([C@@H]2O[C@H](CO)[C@@H](O)C2(F)F)c(=O)n1 [2’-deoxy-2’, 2’-difluorocytidine, reference compound]"
measured_property = "SI (CC50/IC50), Visual Assay"
result = ">3100"

[[record]]
compound = "Nc1nc2c(ncn2[C@@H]2O[C@H](CO)[C@@H](O)[C@H]2F)c(=O)[nH]1 [2’-deoxy-2’-fluoroguanosine]"
measured_property = "SI (CC50/IC50), Visual Assay"
result = ">4.8"

[[record]]
compound = "Nc1ccn([C@@H]2O[C@H](CO)[C@@H](O)[C@H]2I)c(=O)n1 [2’-iodo-2’-deoxycytidine]"
measured_property = "SI (CC50/IC50), Visual Assay"
result = 0

[[record]]
compound = "O=c1ccn([C@@H]2O[C@H](CO)[C@@H](O)[C@H]2F)c(=O)[nH]1 [2’-deoxy-2’-fluorouridine]"
measured_property = "SI (CC50/IC50), Visual Assay"
result = 0


// below: SI (CC50/IC50), Visual Assay requested for another compound
stdin: Need SI (CC50/IC50), Visual Assay, item Nc1ncnc2c1ncn2[C@@H]1O[C@H](CO)[C@@H](O)[C@H]1F [2’-deoxy-2’-fluoroadenosine]
stdout: 0

* * *

# Assay Notes: in vitro
# Measurement Context: dog, CC50 values, range, visual assay
Measured Property: CC50

stdin: Need CC50, item Nc1ccn([C@@H]2O[C@H](CO)[C@@H](O)C2(F)F)c(=O)n1 [2’-deoxy-2’, 2’-difluorocytidine, reference compound]
stdout: 2.1 to 530 µM

The origin of these recorded values is paper PMC3216401.
